# tested-on: T1, Human ErbB2 extracellular part fused to Fc of human IgG1 (human, UniProt P04626 23-652)
# T1 construct: extracellular domain; also called ErbB2-Fc chimeric protein; not shown: Fc region of human IgG1
# assay-comment: SPR (BIAcore 2000), peptide dendrimer immobilized, receptor ECD-Fc injected; mean ± SEM
Where no end group is shown, it is not given here.
measurement-label: Kd (nM)
Please state the figure in nM; there is no need to write the unit.

Q) Query (binder): FVYNPTTFQLEMNFNAK (also: tetrameric dendrimer: four monomers coupled to a lysine backbone, also called 4DL) [Inherbin4 peptide, tetrameric dendrimer] ; field requested: Kd
A) 43
